Reference for the values: patent US9676766B2

- testedSystem: human kinase Mps-1 (Homo sapiens, UniProt P33981)
- Construct: N-terminally GST-tagged human full length recombinant Mps-1 kinase
- Sequence (P33981 whole entry): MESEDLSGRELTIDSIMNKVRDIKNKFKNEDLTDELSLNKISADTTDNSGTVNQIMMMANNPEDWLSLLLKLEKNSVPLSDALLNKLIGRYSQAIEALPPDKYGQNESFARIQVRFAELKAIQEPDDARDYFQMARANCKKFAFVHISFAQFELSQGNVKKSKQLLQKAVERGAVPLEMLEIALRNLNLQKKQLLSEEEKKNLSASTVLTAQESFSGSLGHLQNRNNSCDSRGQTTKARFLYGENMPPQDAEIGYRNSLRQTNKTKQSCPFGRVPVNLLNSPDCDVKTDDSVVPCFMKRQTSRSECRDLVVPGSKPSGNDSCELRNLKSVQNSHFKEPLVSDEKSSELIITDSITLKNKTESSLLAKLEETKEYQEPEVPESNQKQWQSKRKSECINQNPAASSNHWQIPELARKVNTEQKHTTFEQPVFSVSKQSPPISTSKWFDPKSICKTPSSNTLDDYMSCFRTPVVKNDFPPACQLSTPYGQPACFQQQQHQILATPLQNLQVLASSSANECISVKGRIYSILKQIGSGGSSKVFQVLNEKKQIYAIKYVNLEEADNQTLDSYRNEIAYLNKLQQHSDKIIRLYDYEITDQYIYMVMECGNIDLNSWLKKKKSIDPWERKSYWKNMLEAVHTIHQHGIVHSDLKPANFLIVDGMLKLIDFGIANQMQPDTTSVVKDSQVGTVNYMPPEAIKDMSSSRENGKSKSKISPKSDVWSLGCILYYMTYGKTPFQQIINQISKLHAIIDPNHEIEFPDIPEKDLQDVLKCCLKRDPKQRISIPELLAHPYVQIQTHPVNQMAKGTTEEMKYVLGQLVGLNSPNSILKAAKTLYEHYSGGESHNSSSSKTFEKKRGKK
- protocolDescription: Mps-1 Kinase Assay (TR-FRET)
- measurementParameters: N-terminally GST-tagged human full length recombinant Mps-1; 10 μM ATP; 1 μM biotinylated peptide substrate; 60 min at 22° C.; read-out: MPS1 Inhibition, IC50 in M
metricName: IC50 (nM)

1. O=C(Cc1ccccc1)Nc1ccc(-c2ccc3nc(Nc4ccccc4C(F)(F)F)nn3c2)cc1
2. COc1ccccc1Nc1nc2ccc(-c3cccc(NS(=O)(=O)c4ccccc4)c3)cn2n1
3. COc1ccccc1Nc1nc2ccc(-c3cccc(NC(=O)NC4CC4)c3)cn2n1
4. N#Cc1ccccc1Nc1nc2ccc(-c3ccc(NC(=O)Cc4cccc(F)c4)cc3)cn2n1
5. N#Cc1ccccc1Nc1nc2ccc(-c3cccc(C(=O)NC4CCCC4)c3)cn2n1
For the compounds shown above, give the order from largest IC50 to smallest. Field: ranking. Enter the labels in the order requested.
2, 3, 1, 5, 4
